Listed here are compounds together with their documented log10 TGI.
- Tested on: NCI-H23 lung
- assay_text: NCI tumour cell line growth inhibition, 48 h
test_readout: log10 TGI (log10 of the value in µM)

compound	meas_value
Cn1cc(-c2csc(-c3cn(C)c4ncccc34)n2)c2ccccc21	1.31
C=C(CNCCc1ccc(O)cc1)[C@@H]1CC[C@]2(CO)CC[C@]3(C)[C@H](CC[C@@H]4[C@@]5(C)CCC(NCCO)C(C)(C)[C@@H]5CC[C@]43C)[C@@H]12 (stereo not given in full)	0.54
COc1ccc(-n2c(-c3ccccc3)cc(-c3cccs3)c2-c2cccs2)cc1	1.98
c1ccc(CNc2nc(Nc3ccc(-c4nc5ccccc5[nH]4)cc3)c3cn[nH]c3n2)cc1	0.79
ClCc1nc2cc(Cl)ccc2o1	1.39
COc1cc2c(cc1OCCCN1CCN(CCCOc3cc4c(cc3OC)C(=O)C3CCC[C@H]3C=N4)CC1)N=C[C@@H]1CCCC1C2=O (stereo not given in full)	1.15

---

# maps each entry to its TGI
- Test system: CCRF-CEM leukemia
- assay_text: NCI tumour cell line growth inhibition, 48 h
test_readout: TGI

> print(dat)
                                    compound       study.system  test.readout  meas.value
 1    S=c1nc(/C=C/c2ccc(Cl)c(Cl)c2)[nH][nH]1  CCRF-CEM leukemia           TGI    > 100 µM
 2  CCN(CC)CCSc1nc2c([N+](=O)[O-])cccc2[nH]1  CCRF-CEM leukemia           TGI    > 100 µM
 3  O=[N+]([O-])c1ccc2nc(/C=C(\O)c3ccccc3)c(/C=C(\O)c3ccc(Cl)cc3)nc2c1  CCRF-CEM leukemia           TGI    > 100 µM
 4  COC(=O)C1(c2ccc(OC)cc2)NC(c2ccccc2)C2C(=O)N(c3ccc(OC)cc3)C(=O)C21 (stereo not given)  CCRF-CEM leukemia           TGI    > 100 µM
 5    COc1cc2c(c(Br)c1N)-c1cc(Br)c(N)cc1C2=O  CCRF-CEM leukemia           TGI    > 100 µM
 6  Nc1ncn([C@@H]2C=C(CO)C(O)C2O)c(=O)n1 (stereo not given in full)  CCRF-CEM leukemia           TGI    > 100 µM
 7  Cc1cc2c(cc1-c1cc3c(cc1C)C(C(C)C)=C(O)C(=O)/C3=C\Nc1cccc3c(N)cccc13)/C(=C/Nc1cccc3c(N)cccc13)C(=O)C(O)=C2C(C)C  CCRF-CEM leukemia           TGI    > 100 µM
 8    COc1ccc(C(=O)Nc2ccccc2)cc1[N+](=O)[O-]  CCRF-CEM leukemia           TGI    > 100 µM
 9  CCN1C(=O)N(CC)C2C1NN=c1s/c(=C\c3ccc([N+](=O)[O-])cc3)c(=O)n12 (stereo not given)  CCRF-CEM leukemia           TGI   > 46.7 µM
10  Cc1ccc(C)c(NC(=O)CCC(=O)CC(=O)C(C)(C)C)c1  CCRF-CEM leukemia           TGI    > 100 µM
11             Brc1ccc(C2(N3CCCCC3)CCCCC2)s1  CCRF-CEM leukemia           TGI     39.2 µM
12  COc1cc(C2c3cc4c(cc3[C@@H](OCCN)[C@H]3COC(=O)C23)OCO4)cc(OC)c1O (stereo not given in full)  CCRF-CEM leukemia           TGI   0.0409 µM
13  O=C1c2cccnc2-c2nc(-c3ccccc3)cc3c2c1nc1ccccc13  CCRF-CEM leukemia           TGI     29.7 µM
14                CN(N=O)C(N)=NC(=O)c1ccccc1  CCRF-CEM leukemia           TGI    > 100 µM
15  COc1ccc([N+](=O)[O-])cc1[I+]c1cc([N+](=O)[O-])ccc1OC  CCRF-CEM leukemia           TGI    > 100 µM
16  CC(C)=CCc1c(O)c(CC=C(C)C)c2oc3c(c(=O)c2c1O)C(C=C(C)C)Oc1cc(O)ccc1-3 (stereo not given)  CCRF-CEM leukemia           TGI     7.68 µM
17  O=C1NC(c2ccccc2)C1N(Cc1ccccc1)Cc1ccccc1 (stereo not given)  CCRF-CEM leukemia           TGI    > 100 µM
18   O=C1Nc2ccccc2/C1=C\c1c(Cl)[nH]c2ccccc12  CCRF-CEM leukemia           TGI     3.44 µM
19  O=[N+]([O-])c1ccc(N=Nc2c(O)[nH]c3ccc(Br)cc23)c([N+](=O)[O-])c1  CCRF-CEM leukemia           TGI      9.3 µM
20  OCC1OC(NC(=S)NCSCCC(F)(F)C(F)(F)C(F)(F)C(F)(F)C(F)(F)C(F)(F)F)C(O)C(O)C1O (stereo not given)  CCRF-CEM leukemia           TGI     91.3 µM

---

- Test system: SF-539 CNS
- assay_text: NCI tumour cell line growth inhibition, 48 h
Kind request: treat 30 µM as inclusive, so TGI at 30 µM or higher is condition met, anything lower is condition not met.

> print(dat)
                                    compound   class.assignment
 1  COc1ccc(C2C(Cl)C(=O)N2NC(=O)c2ccc(NC(C)=O)cc2)cc1OC (stereo not given)      condition met
 2  COC(=O)/C=C(\S/C(=C(/c1ccccc1)n1cc(C(=O)OC)c(C(=O)OC)n1)c1ccccc1)C(=O)OC      condition met
 3  [N-]=[N+]=NC1=C(N=[N+]=[N-])c2cccc3cccc(c23)C1=O      condition met
 4  CC1(c2nc3ccccc3[nH]2)CCC(CO)C(C)(C)O1 (stereo not given)      condition met
 5  COC(=O)C1(C)CCc2c(ccc3ccccc23)C1=O (stereo not given)      condition met
 6  CCN1C(=O)N(CC)C2C1NN=c1s/c(=C\c3ccc([N+](=O)[O-])cc3)c(=O)n12 (stereo not given)  condition not met
 7         COc1ccc2[nH]c3c(c2c1)CCc1ccccc1-3      condition met
 8  C[CH2][Sn]([CH2]C)([O]C(=O)c1cc(OC)c(OC)c(OC)c1)[O][Sn]([CH2]C)([CH2]C)[O]C(=O)c1cc(OC)c(OC)c(OC)c1      condition met
 9  CN(C)c1ccc(N=C(C#N)c2nc(N)nc(N3CCOCC3)n2)cc1      condition met
10  COC(=O)C1(Cc2ccccc2C)Cc2ccc(C)cc2C1=O (stereo not given)      condition met
11  COc1cc(C2c3cc4c(cc3[C@@H](OCCN)[C@H]3COC(=O)C23)OCO4)cc(OC)c1O (stereo not given in full)  condition not met
12        COc1ccc(C=O)c(N(C)C(=O)C(C)(C)C)c1      condition met
13  COc1ccc2c(c1)OCC1Cc3cccc(OC)c3OC21 (stereo not given)      condition met
14  COc1ccc([N+](=O)[O-])cc1[I+]c1cc([N+](=O)[O-])ccc1OC      condition met
15        N/C(=N\N=C=C1C(=O)Nc2ccc(F)cc21)NO      condition met
16  CCOC(=O)C1=C(O)CSC1=Nc1ccc(N=C2SCC(O)=C2C(=O)OCC)cc1      condition met
17                          O=Cc1cc(O)ccc1Br      condition met
18  CC(=O)NNc1nc(C)c(C(/C=C/c2ccc3c(c2)OCO3)=N/NC(=O)c2ccncc2)s1      condition met
19  N/C(=N/O)c1cn(C2OC(CO)C(O)C2O)c2ncnc(NO)c12 (stereo not given)  condition not met
20  COc1cc(/C=C2\N=C(c3ccccc3)N(/N=C/c3cc4cc(C)ccc4nc3Cl)C2=O)ccc1O      condition met
21  Cn1cccc1C1CC(=O)N(CCC[Se]C#N)C1=O (stereo not given)  condition not met
22  c1ccc(CNc2nc(Nc3ccc(-c4nc5ccccc5[nH]4)cc3)c3cn[nH]c3n2)cc1  condition not met
23  COC(=O)c1c(OC(C)=O)ccc2c1c1c(n2Cc2ccccc2)C(=O)c2ccccc2C1=O      condition met
24  CC(=O)NC1C(OCc2ccccc2)OC(CO)C(O)C1OCC(=O)NC(C)C(=O)NC(CCC(=O)Nc1ccc2c(c1)CN1C(=O)c3ccccc3C1=N2)C(N)=O (stereo not given)      condition met
25  C=C1C(=O)C23C(O)C1CCC2C12CO[C@]3(O)[C@@H](O)C1C(C)(C)CCC2O (stereo not given in full)  condition not met
26  CN(C)c1ccc(C=Nc2ccc(-c3nc4ccccc4o3)cc2)cc1      condition met
27  CCN1CCC(O)(c2ccccc2)C(C(=O)c2ccccc2)C1 (stereo not given)      condition met
28  CC1(C)CCC(CN2CCN(c3ccc(C(=O)NS(=O)(=O)c4ccc(NCC5CCOCC5)c([N+](=O)[O-])c4)c(Oc4cnc5[nH]ccc5c4)c3)CC2)=C(c2ccc(Cl)cc2)C1  condition not met
29  C[C@@H](Oc1cc(-n2cnc3ccc(OCC4CCN(C)CC4)cc32)sc1C(N)=O)c1ccccc1C(F)(F)F  condition not met
30  O=C(N/N=C1\CCc2ccccc21)N/N=C1\CCc2ccccc21      condition met
31  COC(=O)C12C3C=CC(O3)C1C1C=CC2O1 (stereo not given)      condition met
32  Cc1cc(C)c2c(c1C)CN1CN2Cc2c(C)c(C)cc(C)c21      condition met
33  CC(C)c1cc(C(C)C)c(P2(=O)CC3C(Cl)(Cl)C3(C)C2)c(C(C)C)c1 (stereo not given)  condition not met
34           COC(=O)/C=C1/OC(c2ccccc2)=CC1=O      condition met
35  CCN(CC)CCSc1nc2c([N+](=O)[O-])cccc2[nH]1      condition met
36  COc1cccc2c(=O)c3c(O)c4cc(N(C)C)ccc4c(OC(C)=O)c3oc12      condition met
37           O=C(/C=C/c1cccnc1)/C=C/c1cccnc1  condition not met
